Reference source for all entries: PubChem BioAssay AID1963986

Tested on: 171881-019-R-J1-PDC tumor spheroid viability
TEST METHOD NOTES: Anticancer human tumor 171881-019-R-J1-PDC patient-derived invasive breast carcinoma cell line growth inhibition [PI3K]
REPORTED CONDITIONS: second compound 3.16 µM; first compound 3.16 µM; hits give low values; spheroids with HUVEC and MSC
MEASURED PROPERTY: viability, T/C (%)

C#Cc1c(F)ccc2cc(O)cc(-c3ncc4c(N5CC6CCC(C5)N6)nc(OCC56CCCN5CC(F)C6)nc4c3F)c12 (stereo unspecified) + Cc1nc(NC(=O)N2CCCC2C(N)=O)sc1-c1ccnc(C(C)(C)C(F)(F)F)c1    4
CC(Cn1ccc(-c2ccc(C#N)c(Cl)c2)n1)NC(=O)c1cc(C(C)O)[nH]n1 (stereo unspecified) + CC(Nc1ncnc2nc[nH]c12)c1cc2cccc(Cl)c2c(=O)n1-c1ccccc1    85
CC1(C)CCC(CN2CCN(c3ccc(C(=O)NS(=O)(=O)c4ccc(NCC5CCOCC5)c([N+](=O)[O-])c4)c(Oc4cnc5[nH]ccc5c4)c3)CC2)=C(c2ccc(Cl)cc2)C1 + Cc1nc(NC(=O)N2CCCC2C(N)=O)sc1-c1ccnc(C(C)(C)C(F)(F)F)c1    15.9
CC1(C)CCC(Nc2ncc(C(F)(F)F)c(-c3c[nH]c4c(P(C)(C)=O)c(C#N)ccc34)n2)CN1 (stereo unspecified) + Cc1nc(NC(=O)N2CCCC2C(N)=O)sc1-c1ccnc(C(C)(C)C(F)(F)F)c1    13.3
CNC(=O)c1ccc(N2C(=S)N(c3ccc(C#N)c(C(F)(F)F)c3)C(=O)C2(C)C)cc1F + CC(Nc1ncnc2nc[nH]c12)c1cc2cccc(Cl)c2c(=O)n1-c1ccccc1    80.9
CNC(=O)c1ccc(N2C(=S)N(c3ccc(C#N)c(C(F)(F)F)c3)C(=O)C2(C)C)cc1F + Cc1nc(NC(=O)N2CCCC2C(N)=O)sc1-c1ccnc(C(C)(C)C(F)(F)F)c1    12.5
CCCS(=O)(=O)Nc1ccc(F)c(C(=O)c2c[nH]c3ncc(-c4ccc(Cl)cc4)cc23)c1F + Cc1nc(NC(=O)N2CCCC2C(N)=O)sc1-c1ccnc(C(C)(C)C(F)(F)F)c1    23.4
CC(C)NCC(C(=O)N1CCN(c2ncnc3c2C(C)CC3O)CC1)c1ccc(Cl)cc1 (stereo unspecified) + Cc1nc(NC(=O)N2CCCC2C(N)=O)sc1-c1ccnc(C(C)(C)C(F)(F)F)c1    6.94
C#Cc1c(F)ccc2cc(O)cc(-c3ncc4c(N5CC6CCC(C5)N6)nc(OCC56CCCN5CC(F)C6)nc4c3F)c12 (stereo unspecified) + CC(Nc1ncnc2nc[nH]c12)c1cc2cccc(Cl)c2c(=O)n1-c1ccccc1    18.2
C[C@@H](NC(=O)c1ncnc(N)c1Cl)c1ncc(C(=O)Nc2cc(C(F)(F)F)c(Cl)cn2)s1 + CC(Nc1ncnc2nc[nH]c12)c1cc2cccc(Cl)c2c(=O)n1-c1ccccc1    48.8
CC(C)NCC(C(=O)N1CCN(c2ncnc3c2C(C)CC3O)CC1)c1ccc(Cl)cc1 (stereo unspecified) + CC(Nc1ncnc2nc[nH]c12)c1cc2cccc(Cl)c2c(=O)n1-c1ccccc1    11.5

----------
Tested on: 171881-019-R-J1-PDC tumor spheroid viability
TEST METHOD NOTES: Anticancer human tumor 171881-019-R-J1-PDC cell line growth inhibition [PI3K];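 also: spheroids exposed to compound for 7 days before viability read; 100% = DMSO vehicle-treated spheroids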
REPORTED CONDITIONS: compound 0.00316 µM; hits give low values; spheroids with HUVEC and MSC
As shown below, each of these compounds has a reported viability, T/C value.
MEASURED PROPERTY: viability, T/C

CC(C)n1nc(-c2ccc3oc(N)nc3c2)c2c(N)ncnc21    78.9% [middle of 4 runs]
CC(Nc1ccc2c(c1)OCCn1cc(N3C(=O)OCC3C(F)F)nc1-2)C(N)=O (stereo unspecified)    94.1% [middle of 8 runs]
CCN1CCN(Cc2ccc(Nc3ncc(F)c(-c4cc(F)c5nc(C)n(C(C)C)c5c4)n3)nc2)CC1    98.7% [middle of 4 runs]
Cn1ncnc1[C@H]1c2n[nH]c(=O)c3cc(F)cc(c23)N[C@@H]1c1ccc(F)cc1    97.5% [middle of 4 runs]
COc1c(OCCCN2CCOCC2)ccc2c3n(c(=NC(=O)c4cnc(N)nc4)nc12)CCN3    69.1% [middle of 8 runs]
CC(=O)c1c(C)c2cnc(Nc3ccc(N4CCNCC4)cn3)nc2n(C2CCCC2)c1=O    97% [middle of 4 runs]
